# EXPERIMENT_SUMMARY: Cytotoxicity against human SNU-C4 HiBiT-PXR KI cell assessed as cell viability at 30 uM incubated for 24 hrs by celltiter-glo luminescent assay relative to control
# Format: functional
# EXPERIMENTAL_CONTEXT: read-out: Activity
Field: viability at 30 µM. Provide a value for each of the compounds that follow.
Remember to follow the number with its unit.

Reported viability at 30 µM of CCC[C@H](CC)Oc1ccc(C(=O)OC)cc1NC(=O)c1nnn(-c2cc(OC)c(OCCCCCCOCCOCC(=O)N[C@H](C(=O)N3C[C@H](O)C[C@H]3C(=O)NCc3ccc(-c4scnc4C)cc3)C(C)(C)C)cc2OC)c1C : 102%

In plain terms, CCC[C@H](CC)Oc1ccc(C(C)(C)C)cc1NC(=O)c1nnn(-c2cc(C)c(OCCCCCCOCCOCC(=O)N[C@H](C(=O)N3C[C@H](O)C[C@H]3C(=O)NCc3ccc(-c4scnc4C)cc3)C(C)(C)C)cc2OC)c1C has a documented viability at 30 µM of 93.9%

The value of viability at 30 µM measured for the compound CCCCOc1ccc(C(C)(C)C)cc1NC(=O)c1nnn(-c2cc(C)c(OCCCCCCOCCOCC(=O)N[C@H](C(=O)N3C[C@H](O)C[C@H]3C(=O)NCc3ccc(-c4scnc4C)cc3)C(C)(C)C)cc2OC)c1C turned out to be 96.7%
